tested on: SR; test: NCI tumour cell line growth inhibition, 48 h
Active and inactive are the calls of the source. Rule as the data show it: active = GI50 up to about 1.1 µM and inactive = higher.

molecule	target.or.system	GI50
O=C(O)COc1ccccc1C(=O)Nc1ccccc1	SR	> 100 µM (inactive)
COc1ccc(C(=O)/C=C/c2ccncc2)cc1OC	SR	6.49 µM (inactive)
Cc1cn(C2CC(/[N+]([O-])=N\Nc3ccc([N+](=O)[O-])cc3)C(CO)O2)c(=O)[nH]c1=O (stereo unspecified)	SR	4.62 µM (inactive)
Cc1cc(O)c2c(c1)C(=O)c1cc(O)cc(O)c1C2=O	SR	23.4 µM (inactive)
COC(=O)CNC(=O)Nc1cc(N2C(=O)ON3C2C(C)(C)N(O)C3(C)C)ccc1C (stereo unspecified)	SR	> 100 µM (inactive)
CCOC(=O)C1c2[nH]c3ccccc3c2CCN1C(=O)c1ccc(OC)o1 (stereo unspecified)	SR	> 10 µM (inactive)
O=C1Nc2ccccc2/C1=N/NC(=S)Nc1ccc(Cl)cc1	SR	10.8 µM (inactive)
O=C(C[n+]1ccccc1)N/N=C(\C(=O)NC1=C(Cl)C(=O)c2ccccc2C1=O)c1c(O)c2ccc(O)cc2oc1=O	SR	4.19 µM (inactive)
CC(C)(C)NC(=O)CCC1C(C(=O)NC(C)(C)C)C2(Cl)C(Cl)=C(Cl)C1(Cl)C2(Cl)Cl (stereo unspecified)	SR	> 100 µM (inactive)
O=C(Nc1cc(Cl)c(Cl)cc1Cl)C(=O)C(C(=O)c1ccc2ccccc2c1)C1OC(=O)c2ccccc21 (stereo unspecified)	SR	4.66 µM (inactive)
CSc1ncnc2c1cnn2Cc1cnnn1COCC(O)CO (stereo unspecified)	SR	> 100 µM (inactive)
